# tgt: Retinaldehyde dehydrogenase 3 (Homo sapiens)
# protocol.details: qHTS for Inhibitors of the Aldehyde Dehydrogenase Family (ALDH1A3) Confirmatory screens (AID 2061311); also: nearly all actives have a fitted effect of over 60% in size
# stated.conditions: ALDH inhibition qHTS; series mostly up to 46 µM
Records with an inconclusive call do not appear. Activity calls are given as the source filed them. Calls follow the shape of the dose curve; as a rule, active = well fitted inhibition curve with a large enough effect; inconclusive = small, poorly fitted or top-dose-only effect; inactive = no such curve, though single readings can be large or run the other way.
Possible outcomes: active, inactive

molecule: O=S(=O)(NN1CCOCC1)c1ccc(Br)cc1
tgt: Retinaldehyde dehydrogenase 3 (Homo sapiens)
cat: inactive

molecule: CN(C)c1ccc(-c2csc(N3CCC(C(N)=O)CC3)n2)cc1
tgt: Retinaldehyde dehydrogenase 3 (Homo sapiens)
cat: active

molecule: COc1ccc(CC(=O)Nc2ccc([C@H]3OCC(=O)N(Cc4ccccc4)[C@@H]3CO)cc2)cc1
tgt: Retinaldehyde dehydrogenase 3 (Homo sapiens)
cat: inactive

molecule: CCOc1ccc(CCNC(=O)c2cc3sccc3n2CC)cc1OCC
tgt: Retinaldehyde dehydrogenase 3 (Homo sapiens)
cat: inactive

molecule: COc1ccc(NC(c2nnc(-c3ccccc3)o2)c2ccccc2F)cc1Cl (stereo not given)
tgt: Retinaldehyde dehydrogenase 3 (Homo sapiens)
cat: inactive

molecule: O=C(CSc1nc(-c2cccs2)nc2cc(=O)[nH]n12)Nc1cccc(C(F)(F)F)c1
tgt: Retinaldehyde dehydrogenase 3 (Homo sapiens)
cat: inactive

molecule: CC(C)N1CCc2c(sc(NC(=O)Cc3ccccc3)c2-c2nc3ccccc3s2)C1
tgt: Retinaldehyde dehydrogenase 3 (Homo sapiens)
cat: inactive

molecule: c1nc(NCC2CC2)c2cc(-c3ccc4c(c3)OCO4)ccc2n1
tgt: Retinaldehyde dehydrogenase 3 (Homo sapiens)
cat: inactive

molecule: O=C(C(NS(=O)(=O)c1ccc2[nH]c(=O)ccc2c1)c1cccc(C(F)(F)F)c1)N(Cc1ccco1)Cc1cccs1 (stereo not given)
tgt: Retinaldehyde dehydrogenase 3 (Homo sapiens)
cat: active

molecule: COc1cc(/C=C(\C#N)C(=O)Nc2ccc(C(=O)O)cc2)ccc1OC(=O)c1cccc(F)c1
tgt: Retinaldehyde dehydrogenase 3 (Homo sapiens)
cat: active

Where do the numbers come from? From PubChem BioAssay (NCATS).
